Origin of measurements: paper PMC12193833

# System: C. neoformans clinical isolates
# assay.comment: MIC/MFC of test compounds, microdilution
# Format: cell-based, Cryptococcus neoformans
# setup.conditions: C. neoformans isolate 350; read-out: MIC

| compound | MIC, µM |
| --- | --- |
| O.O.O.O.O=C1C(=O)c2cccnc2-c2ncccc21.O=C1C(=O)c2cccnc2-c2ncccc21.O=C1C(=O)c2cccnc2-c2ncccc21.[Cu+2].[O-][Cl+3]([O-])([O-])[O-].[O-][Cl+3]([O-])([O-])[O-] [Cu-phendione, [Cu(phendione)3](ClO4)2·4H2O] | 3.125 |
| [Ag+].[O-][Cl+3]([O-])([O-])[O-] [AgClO4, silver perchlorate] | 1.56 |
| O=C1C(=O)c2cccnc2-c2ncccc21 | 12.5 |
| O=C1C(=O)c2cccnc2-c2ncccc21.O=C1C(=O)c2cccnc2-c2ncccc21.[Ag+].[O-][Cl+3]([O-])([O-])[O-] [Ag-phendione, [Ag(phendione)2]ClO4] | 1.56 |
